As shown below, each of these compounds has a reported IC50 value.
Biological target: UniProt Q9Y2T6
Sequence (Q9Y2T6 whole entry): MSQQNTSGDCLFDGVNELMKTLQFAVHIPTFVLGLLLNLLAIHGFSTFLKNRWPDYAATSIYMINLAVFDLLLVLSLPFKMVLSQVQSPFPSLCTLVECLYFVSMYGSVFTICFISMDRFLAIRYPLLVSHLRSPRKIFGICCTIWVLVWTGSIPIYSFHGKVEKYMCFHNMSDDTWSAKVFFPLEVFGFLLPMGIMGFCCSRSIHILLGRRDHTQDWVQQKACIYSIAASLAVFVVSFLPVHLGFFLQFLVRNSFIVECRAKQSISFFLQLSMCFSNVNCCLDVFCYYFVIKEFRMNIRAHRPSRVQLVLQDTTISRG
Experiment: Antagonist activity at human GPR55 expressed in CHO cells assessed as inhibition of lysophosphotidylinositol-induced beta-arrestin recruitment preincubated for 30 mins followed by lysophosphotidylinositol induction by beta-galactosidase reporter gene assay
READOUT_LABEL: IC50 (µM)

• COc1ccc(C(=O)Nc2cc(Br)cc3c(=O)cc(C(=O)O)oc23)nc1 = 8.92
• O=C(Nc1cccc2c(=O)cc(C(=O)O)oc12)c1ccc2ccccc2c1 = 29.1
• COc1ccc(C(=O)Nc2cc(Br)cc3c(=O)cc(C(=O)O)oc23)cn1 = 6.2
• COc1ccc(C(=O)Nc2cc(Br)cc3c(=O)cc(C(=O)O)oc23)cc1 = 21.7
• COc1ccc(C(=O)Nc2cc(Br)cc3c(=O)cc(C(=O)O)oc23)c(Cl)c1 = 21.7
